Test system: P388 leukemia ip, CD2F1 mice, survival T/C
Assay: NCI In Vivo Anticancer Drug Screen. Data for tumor model P388 Leukemia (intraperitoneal) in CD2F1 (CDF1) mice
Details: endpoint: median survival time; dose: 100.0 mg/kg/injection; schedule: Q04DX003 (ip); vehicle: saline; higher = longer survival
Toxic doses and inconclusive results are not listed.
OBSERVATION TYPE: T/C

Data request: GET /values?readout=T/C&item= Cc1cc2nnc(C)n2c(C)n1
Data returned: 95 % of control

Data request: Report T/C for Nc1ccc2oc3cccnc3c2c1 please.
Data returned: 104 % of control

Data request: Name the reported T/C value associated with the molecule Cn1cnc2cc(NCCO)c([N+](=O)[O-])cc2c1=O
Data returned: 105 % of control

Data request: Tell me the measured T/C of CC(=O)NN , please.
Data returned: 100 % of control

Data request: Give the measured T/C of COC(=O)CCCCC(=O)OC .
Data returned: 109 % of control

Data request: Would you mind telling me what T/C value was observed for O=C1CNC(=O)N1CCO ?
Data returned: 99 % of control

Data request: Consider the molecule Cc1ccc[n+](CCC(N)=O)c1 and give its measured T/C.
Data returned: 100 % of control

Data request: // returns reported T/C for input CN(C)C(=C1C=CC=C/C1=N/S(=O)(=O)c1ccccc1)N(C)C
Data returned: 103 % of control

Data request: # T/C lookup, item Brc1nc(-[n+]2ccccc2)[n-]c1Br
Data returned: 101 % of control

Data request: Entry c1cc[n+](-c2nc3ccccc3[n-]2)cc1 : reported T/C = ?
Data returned: 100 % of control

Data request: Quick check: T/C of OCC1OC(n2cnc3cncnc32)C(O)C1O (configuration not stated) ?
Data returned: 100 % of control

Data request: Dear colleague, I am looking for the recorded T/C of the following molecule: FC(F)(F)C(Cl)Br (configuration not stated)
Data returned: 109 % of control
